# Assay System: nicotinic receptors (rat brain membranes)
# Type: binding
# Run Conditions: pH 7.5; read-out: 3H-Nicotine Binding IC50
Assay Readout: pIC50
One number for each entry, as −log10 of the molar value.

Solved cases below.
{"Molecule": "O=c1cccc2n1C[C@@H]1CNC[C@H]2C1 [cytisine, reference compound]", "Quantitative Result": 8.22}
{"Molecule": "CCN1CCCC1c1cccnc1 (stereo not drawn) [N'--ethyl nornicotine, reference compound]", "Quantitative Result": 7.52}

Hey, can you go through the list below and give me pIC50 for every item?
1. CN(C)CCOC(N)=O [DMAE carbamate]
2. CN(C)CCOC(=O)CCC(=O)OCCN(C)C [DMAE succinate]

Result:
5.00
4.30

I have 5 molecules here; please give me pIC50 for each one.
1. CNC(=O)OCCN(C)C [DMAE methylcarbamate, dimethylaminoethylmethylcarbamate]
2. CNC(=O)OCCCN(C)C [DMAP methylcarbamate]
3. CCCN1CCCC1c1cccnc1 (stereo not drawn) [N'--propyl nornicotine, reference compound]
4. CC(=O)OCCN(C)C [DMAE acetate]
5. C[N+]1(C)CCCC1c1cccnc1 (stereo not drawn)

Result:
1. 6.30
2. 6.70
3. 6.22
4. 4.30
5. 5.15
